- Test system: U-251
- protocolDetails: NCI tumour cell line growth inhibition, 48 h
Active and inactive are the calls of the source. Rule as the data show it: active = GI50 up to about 1.1 µM and inactive = higher.
Response enum: active, inactive

Which outcome did this test record for the molecule OCCSCCCSCCO ?
inactive

New cases:
Could you please tell me the result logged for c1ccc(C(=NNc2nc3ccccc3[nH]2)c2ccccn2)nc1 in this assay?
active

Please state the recorded outcome for this molecule: C=CCc1c(Cl)nc(Cl)nc1Cl
active

Hi, sorry to bother you, what did the test record for COc1cc(CSc2ccc(O)cc2)cc(O)c1O ?
inactive

Write down the call the test reported for this molecule. Item: Cc1cnc2sn(-c3ccc([N+](=O)[O-])cc3)c(=O)c2c1
inactive

What was the test verdict on O=C(CN(Cc1ccccc1)Cc1ccccc1)N1CCc2c([nH]c3ccccc23)C1c1cccnc1 (stereo unspecified) ?
inactive
